// provenance: patent US5776899A

System: MT-4 cells
test-protocol: Cytotoxicity on virus-non-infected MT-4 cells (MTT method)
Assay type: cell-based
recorded-conditions: Table 5; method of Example 2, virus-non-infected MT-4 cells
Experimental: HIV-infected MT-4 cells (2.5×10^4 cells/well, multiplicity of infection (MOI): 0.001) immediately after infection were added together with the test substance with various changes of the concentration to a 96-well microtitre plate. After incubation at 37° C. for 5 days in a CO2 incubator, the number of survivor cells was measured by the MTT method [Pauwels et al.; J. Virol. […] Further, the rough ratio of CC50 to EC50, (CC50 /EC50) is expressed as an effective ratio (SI).
Positions of bridges follow the written chain, without caps; N, C: chain ends. Non-standard residues stand in square brackets, D forms with d. Residues, ends and D or L forms follow the SMILES beside them. dOrn = NCCC[C@@H](N)C(=O)O
property-label: CC50 (µg/mL)
// note: answer is a bare numeric in µg/mL

N=C(N)NCCC[C@H](NC(=O)[C@@H]1CSSC[C@H](NC(=O)[C@H](Cc2c[nH]c3ccccc23)NC(=O)[C@H](CCCNC(=N)N)NC(=O)[C@@H](N)CCCNC(=N)N)C(=O)N[C@@H](Cc2ccc(O)cc2)C(=O)N[C@@H](CCCNC(=N)N)C(=O)N[C@@H](CCCCN)C(=O)N2CCC[C@H]2C(=O)N[C@H](CCCCN)C(=O)N[C@@H](Cc2ccc(O)cc2)C(=O)N[C@@H](CCCNC(=N)N)C(=O)N[C@@H](CCCCN)C(=O)N1)C(N)=O [Polypeptide (5)] (H-RRWCYRKP[dK]YRKCR-NH2; disulfide 4-13) = 101.20

The recorded CC50 for entry N=C(N)NCCC[C@H](NC(=O)[C@@H]1CSSC[C@H](NC(=O)[C@H](Cc2c[nH]c3ccccc23)NC(=O)[C@H](CCCNC(=N)N)NC(=O)[C@@H](N)CCCNC(=N)N)C(=O)N[C@@H](Cc2ccc(O)cc2)C(=O)N[C@@H](CCCNC(=N)N)C(=O)N[C@@H](CCCCN)C(=O)N[C@H](CCCN)C(=O)N2CCC[C@H]2C(=O)N[C@@H](Cc2ccc(O)cc2)C(=O)N[C@@H](CCCNC(=N)N)C(=O)N[C@@H](CCCCN)C(=O)N1)C(N)=O [Polypeptide (6)] (H-RRWCYRK[dOrn]PYRKCR-NH2; disulfide 4-13) equals 55.93
